Assay: Ocular PK in Brown Norway rats following a single oral dose (Example 5)
Assay type: in vivo
Details: Brown Norway, rat; single oral dose 0.3 mg/kg, retina, sampling 6-144 hrs; read-out: AUC(last) Retina
measured.metric: AUC(0-t) (µM·h)
Enter your answer as a number in µM·h; do not include the unit.

Query: Item under review: COc1cc2nccc(Oc3ccc(NC(=O)Nc4cc(C)on4)c(Cl)c3)c2cc1OC . Reported AUC(0-t)?
Result: 2.47

* * *

Test: Ocular PK in Brown Norway rats following a single oral dose (Example 5)
Format: in vivo
Conditions: Brown Norway, rat; single oral dose 10 mg/kg, plasma, sampling 6-144 hrs; read-out: AUC(last) Plasma
measured.metric: AUC(0-t) (µM·h)
Value expressed in µM·h; do not type the unit.

Query: GET /values?readout=AUC(0-t)&item= CNC(=O)c1cc(Oc2ccc(NC(=O)Nc3ccc(Cl)c(C(F)(F)F)c3)cc2)ccn1 [Compound 9]
Result: 151
